Where these numbers come from: ChEMBL document CHEMBL3785077

- assay-system: Acetylcholinesterase (Homo sapiens, UniProt P22303)
- Sequence (P22303 whole entry): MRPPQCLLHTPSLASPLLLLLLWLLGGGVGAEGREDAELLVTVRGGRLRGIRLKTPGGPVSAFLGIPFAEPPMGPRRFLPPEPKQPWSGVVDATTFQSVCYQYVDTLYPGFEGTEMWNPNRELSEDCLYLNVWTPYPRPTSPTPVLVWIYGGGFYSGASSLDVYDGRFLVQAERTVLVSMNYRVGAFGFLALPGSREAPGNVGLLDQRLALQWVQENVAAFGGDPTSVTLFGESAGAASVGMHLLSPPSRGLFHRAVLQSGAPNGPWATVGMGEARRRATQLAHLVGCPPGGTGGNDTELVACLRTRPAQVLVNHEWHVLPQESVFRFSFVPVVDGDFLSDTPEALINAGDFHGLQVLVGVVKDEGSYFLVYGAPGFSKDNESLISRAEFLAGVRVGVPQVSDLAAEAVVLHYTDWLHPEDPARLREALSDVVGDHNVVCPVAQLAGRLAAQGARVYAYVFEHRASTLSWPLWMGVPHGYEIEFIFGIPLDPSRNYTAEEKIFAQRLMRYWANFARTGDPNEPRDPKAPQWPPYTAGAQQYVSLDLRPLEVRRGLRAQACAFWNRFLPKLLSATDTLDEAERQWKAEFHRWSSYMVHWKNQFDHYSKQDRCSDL
- assay-details: Inhibition of human acetylcholinesterase using […] as substrate at 500 uM preincubated for 4.5 mins followed by substrate addition measured after 2.5 mins by Ellman's spectrophotometric method
measure: inhibition

>>> print(df.to_string())
                                   compound                              assay_system  meas_value
0  CN1Cc2cc(O)ccc2N(C)C1c1cccnc1 (stereo not given)  Acetylcholinesterase (Homo sapiens, UniProt P22303)         61%
1  COc1cccc(C2N(C)Cc3cc(O)ccc3N2C)c1 (stereo not given)  Acetylcholinesterase (Homo sapiens, UniProt P22303)         61%
2  CN1Cc2cc(O)ccc2N(C)C1c1ccccc1Cl (stereo not given)  Acetylcholinesterase (Homo sapiens, UniProt P22303)         60%
3  CN1Cc2cc(O)ccc2N(C)C1c1ccsc1 (stereo not given)  Acetylcholinesterase (Homo sapiens, UniProt P22303)         52%
4                Oc1ccc2nc(-c3ccccc3)ncc2c1  Acetylcholinesterase (Homo sapiens, UniProt P22303)         20%

---

- assay-system: Cholinesterase (Equus caballus) (UniProt P81908)
- Sequence (P81908 whole entry): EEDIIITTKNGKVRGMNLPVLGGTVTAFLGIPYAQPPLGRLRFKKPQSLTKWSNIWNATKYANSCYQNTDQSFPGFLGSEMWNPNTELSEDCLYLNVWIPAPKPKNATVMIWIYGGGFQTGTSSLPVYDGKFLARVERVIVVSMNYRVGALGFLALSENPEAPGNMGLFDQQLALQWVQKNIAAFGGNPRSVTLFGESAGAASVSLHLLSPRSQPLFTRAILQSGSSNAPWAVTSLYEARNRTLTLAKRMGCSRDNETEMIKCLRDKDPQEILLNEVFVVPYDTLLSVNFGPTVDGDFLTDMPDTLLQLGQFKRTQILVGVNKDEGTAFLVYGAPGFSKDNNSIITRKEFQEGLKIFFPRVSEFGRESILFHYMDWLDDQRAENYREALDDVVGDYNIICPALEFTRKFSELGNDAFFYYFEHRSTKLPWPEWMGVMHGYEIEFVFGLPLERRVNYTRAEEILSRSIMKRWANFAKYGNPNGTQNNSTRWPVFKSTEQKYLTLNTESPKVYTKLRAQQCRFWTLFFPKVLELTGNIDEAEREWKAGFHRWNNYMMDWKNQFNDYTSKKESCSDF
- assay-details: Pseudo-irreversible inhibition of equine serum butyrylcholinesterase assessed as apparent affinity between enzyme and inhibitor at equilibrium state using p-nitrophenyl butyrate as substrate preincubated for 5 to 40 mins followed by substrate addition by double reciprocal plot analysis
measure: log10 of K (log10 of the value in nM)

In [3]: df
Out[3]:
                                    molecule                              assay_system     measure  meas_value
 0  CCCCCCCNC(=O)Oc1ccc2c(c1)CN(C(C)C)C(c1ccccc1)N2C (configuration not stated)  Cholinesterase (Equus caballus) (UniProt P81908)  log10 of K        2.27
 1  CCCCCCCNC(=O)Oc1ccc2c(c1)CN(C)C(c1c(Cl)cccc1Cl)N2C (configuration not stated)  Cholinesterase (Equus caballus) (UniProt P81908)  log10 of K        3.61
 2  CCCCCCCNC(=O)Oc1ccc2c(c1)CN(C)C(c1cccc3ccccc13)N2C (configuration not stated)  Cholinesterase (Equus caballus) (UniProt P81908)  log10 of K        1.19
 3  CCCCCCCNC(=O)Oc1ccc2c(c1)CN(C)C(c1ccc(F)cc1)N2C (configuration not stated)  Cholinesterase (Equus caballus) (UniProt P81908)  log10 of K        1.39
 4  CCCCCCCNC(=O)Oc1ccc2c(c1)CN(C)C(c1ccccc1)N2C (configuration not stated)  Cholinesterase (Equus caballus) (UniProt P81908)  log10 of K        2.35
 5  CCCCCCCNC(=O)Oc1ccc2c(c1)CN(C)C(c1cccc(OC)c1)N2C (configuration not stated)  Cholinesterase (Equus caballus) (UniProt P81908)  log10 of K        2.79
 6   CCCCCCCNC(=O)Oc1ccc2nc(-c3ccccc3)ncc2c1  Cholinesterase (Equus caballus) (UniProt P81908)  log10 of K        3.03
 7  CCCCCCCNC(=O)Oc1ccc2c(c1)CN(C)C(c1cccs1)N2C (configuration not stated)  Cholinesterase (Equus caballus) (UniProt P81908)  log10 of K        1.16
 8  CCCCCCCNC(=O)Oc1ccc2c(c1)CN(C)C(c1cccc(Cl)c1)N2C (configuration not stated)  Cholinesterase (Equus caballus) (UniProt P81908)  log10 of K        2.36
 9  CNC(=O)Oc1ccc2c(c1)[C@]1(C)CCN(C)[C@@H]1N2C  Cholinesterase (Equus caballus) (UniProt P81908)  log10 of K        2.45
10  CCCCCCCNC(=O)Oc1ccc2c(c1)CN(C)C(c1ccc(OC)cc1)N2C (configuration not stated)  Cholinesterase (Equus caballus) (UniProt P81908)  log10 of K        3.08
11  CCCCCCCNC(=O)Oc1ccc2c(c1)CN(C)C(c1ccc(C(F)(F)F)cc1)N2C (configuration not stated)  Cholinesterase (Equus caballus) (UniProt P81908)  log10 of K        2.88

---

IC50: recorded values
- assay-system: Acetylcholinesterase (Homo sapiens)
- assay-details: Inhibition of human acetylcholinesterase using […] as substrate preincubated for 4.5 mins followed by substrate addition measured after 2.5 mins by Ellman's spectrophotometric method
measure: IC50

                                   molecule  meas_value
0  CN1Cc2cc(O)ccc2N(C)C1c1ccoc1 (stereo unspecified)      342 µM
1  CN1Cc2cc(O)ccc2N(C)C1c1ccncc1 (stereo unspecified)      242 µM
2  COc1ccc(C2N(C)Cc3cc(O)ccc3N2C)cc1 (stereo unspecified)      104 µM
3  CN1Cc2cc(O)ccc2N(C)C1c1cccc(Cl)c1 (stereo unspecified)      242 µM
4  Cc1ccccc1C1N(C)Cc2cc(O)ccc2N1C (stereo unspecified)      143 µM
5  Cc1ccc(C2N(C)Cc3cc(O)ccc3N2C)cc1 (stereo unspecified)      110 µM

---

// IC50 lookup, one value per entry
- assay-system: Cholinesterase (Equus caballus, UniProt P81908)
- assay-details: Inhibition of equine serum butyrylcholinesterase using […] as substrate preincubated for 4.5 mins followed by substrate addition measured after 2.5 mins by Ellman's spectrophotometric method
measure: IC50 (µM)

                                   molecule  meas_value
0  CN1Cc2cc(O)ccc2N(C)C1c1ccc2ccccc2c1 (stereo not drawn)        16.5
1  CN1Cc2cc(O)ccc2N(C)C1c1ccc(F)cc1 (stereo not drawn)        58.9
2  CN1Cc2cc(O)ccc2N(C)C1c1cccc2ccccc12 (stereo not drawn)         2.8

---

- assay-system: Cholinesterase (Equus caballus, UniProt P81908)
- assay-details: Inhibition of equine serum butyrylcholinesterase using […] as substrate preincubated for 30 mins followed by substrate addition measured after 2.5 mins by Ellman's spectrophotometric method
Overview of reported log10 IC50 across a group of compounds:
measure: log10 IC50 (log10 of the value in µM)

>>> print(df.to_string())
                                   compound     measure  meas_value
0  CCCCCCCNC(=O)Oc1ccc2c(c1)CN(C(C)C)C(c1ccccc1)N2C (centres undefined)  log10 IC50       -1.68
1  CCCCCCCNC(=O)Oc1ccc2c(c1)CN(Cc1ccccc1)C(c1ccccc1)N2C (centres undefined)  log10 IC50       -1.47
2   CCCCCCCNC(=O)Oc1ccc2nc(-c3ccccc3)ncc2c1  log10 IC50        0.26
3  CCCCCCCNC(=O)Oc1ccc2c(c1)CN(C)C(c1cccc(OC)c1)N2C (centres undefined)  log10 IC50       -0.68
4  CCCCCCCNC(=O)Oc1ccc2c(c1)CN(CCC)C(c1ccccc1)N2C (centres undefined)  log10 IC50       -1.40
5  CCCCCCCNC(=O)Oc1ccc2c(c1)CN(C)C(c1cccs1)N2C (centres undefined)  log10 IC50       -1.85
6  CCCCCCCNC(=O)Oc1ccc2c(c1)CN(C)C(c1ccccc1C)N2C (centres undefined)  log10 IC50       -0.60
7  CCCCCCCNC(=O)Oc1ccc2c(c1)CN(C)C(c1ccsc1)N2C (centres undefined)  log10 IC50       -1.66
8  CCCCCCCNC(=O)Oc1ccc2c(c1)CN(C)C(c1c(Cl)cccc1Cl)N2C (centres undefined)  log10 IC50       -0.27
